Value source: patent US20100222349A1

target: human H1 receptor (Homo sapiens); construct: expressed in transfected cells; experiment: Histamine H1 functional antagonist assay: determination of functional pKi values (FLIPR); assay type: cell-based; conditions: CHO cells expressing human H1 receptor, histamine at EC80, read-out: average pKi (pKb) at H1 (converted)
Sequence (P35367 whole entry): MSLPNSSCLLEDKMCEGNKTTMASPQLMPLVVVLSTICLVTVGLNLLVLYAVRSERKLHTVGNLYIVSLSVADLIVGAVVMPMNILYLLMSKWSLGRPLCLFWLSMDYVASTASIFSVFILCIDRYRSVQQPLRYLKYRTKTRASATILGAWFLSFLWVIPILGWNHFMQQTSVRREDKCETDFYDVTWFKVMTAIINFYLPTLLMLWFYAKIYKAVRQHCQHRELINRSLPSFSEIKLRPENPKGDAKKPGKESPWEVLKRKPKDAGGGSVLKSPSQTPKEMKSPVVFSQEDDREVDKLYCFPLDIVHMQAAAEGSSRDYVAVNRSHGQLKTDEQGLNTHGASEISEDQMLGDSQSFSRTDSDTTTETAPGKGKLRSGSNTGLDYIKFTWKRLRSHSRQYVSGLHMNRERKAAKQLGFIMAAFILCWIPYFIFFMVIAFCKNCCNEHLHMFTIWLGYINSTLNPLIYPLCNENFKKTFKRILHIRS
Catalogue of Ki values

Observe how each entry below is paired with its result.
>  <molecule>
CCCCc1cc(OC2CCN(CCCC(=O)N3CCCCC3)CC2)c2ncccc2c1 [Example 24]

>  <measurement_name>
Ki

>  <reading>
< 100 nM

$$$$
>  <molecule>
CCCCc1cc(OC2CCN(CCNC(=O)C(C)(C)C)CC2)c2ncccc2c1 [Example 72]

>  <measurement_name>
Ki

>  <reading>
< 10 nM

$$$$
>  <molecule>
CCCCc1cc(OC2CCN(CCCNC(=O)CC)CC2)c2ncccc2c1 [Example 86]

>  <measurement_name>
Ki

>  <reading>
< 10 nM

$$$$
>  <molecule>
CCCCc1cc(OC2CCN(CCC(=O)N3CCCCC3)CC2)c2ncccc2c1 [Example 18]

>  <measurement_name>
Ki

>  <reading>
< 10 nM

$$$$
>  <molecule>
CCCCCCc1cc(OC2CCN(C[C@H]3CC[C@H](C(=O)NC(C)C)CC3)CC2)c2ncccc2c1 [Example 56]

>  <measurement_name>
Ki

>  <reading>
< 10 nM

$$$$

Query: Please give the measured Ki for this molecule: CCCCc1cc(OC2CCN(CCC3CCN(C(=O)CC)CC3)CC2)c2ncccc2c1 [Example 4]
Reply: < 100 nM
